Sourced from patent US20170157198A1

Molecular target: TFPI (human TFPI-1α), as coated or added in the ELISA and model assays (human, UniProt P10646 29-304, limits assumed)
Assay: ELISA affinity (column head says EC50)
pEC50: −log10 of the molar value. [ ]: non-standard residue; d: D form. Aib = CC(C)(N)C(=O)O
Quantity kind: pEC50

binder="Ac-FQSK[dP]NVHVDGYFC(linear PEG 40 kDa)RL[Aib]AKL-NH2 [JBT2404]" measurement=7.74
